Measured pEC50, listed per entry for reference.
Test system: Plasmodium falciparum
Experiment: NOVARTIS: Inhibition of Plasmodium falciparum W2 (drug-resistant) proliferation in erythrocyte-based infection assay
Format: functional, organism-based
Conditions: Plasmodium falciparum, W2; read-out: EC50
pEC50: −log10 of the molar value.

{"molecule": "Cc1cccc(CSc2nnc(C(Cc3ccccc3)NC(=O)C3CCCCC3)n2-c2ccc(Cl)cc2Cl)c1 (stereo not given)", "testedOn": "Plasmodium falciparum", "limitQualifier": "=", "pEC50": 5.84}
{"molecule": "CC[C@@H](C(=O)[C@@H](C)C(O)[C@H](C)CCc1ccc(C)c(O)c1C(=O)O)C1O[C@](CC)(C2CC[C@](O)(CC)[C@H](C)O2)C[C@@H]1C (stereo not given in full)", "testedOn": "Plasmodium falciparum", "limitQualifier": "=", "pEC50": 6.50}
{"molecule": "Cn1c(NN=Cc2ccccc2)cc(=O)n(C)c1=O", "testedOn": "Plasmodium falciparum", "limitQualifier": "=", "pEC50": 6.49}
{"molecule": "O=C1C=CC(=O)N1c1ccc(Sc2ccc(N3C(=O)C=CC3=O)cc2)cc1", "testedOn": "Plasmodium falciparum", "limitQualifier": "<", "pEC50": 5.90}
{"molecule": "CCC(=O)Oc1ccccc1-c1nc2ccccn2c1NC(C)(C)CC(C)(C)C", "testedOn": "Plasmodium falciparum", "limitQualifier": "=", "pEC50": 7.46}
{"molecule": "CC(=O)N1CCc2cc(NC3CCN(Cc4ccccc4)CC3)ccc21", "testedOn": "Plasmodium falciparum", "limitQualifier": "<", "pEC50": 6.18}
{"molecule": "CCCc1nc2ccc(NC(=O)c3ccccc3F)cc2c(=O)n1Cc1ccc(-c2ccccc2)cc1", "testedOn": "Plasmodium falciparum", "limitQualifier": "=", "pEC50": 6.66}
{"molecule": "CCCc1c(C)nc2ccc(Br)cc2c1O", "testedOn": "Plasmodium falciparum", "limitQualifier": "=", "pEC50": 5.87}
{"molecule": "COc1cc(OC)c(N(C)C(=O)c2cn(C3CCCC3)c(=O)c3c2c2ccccc2n3C)cc1Cl", "testedOn": "Plasmodium falciparum", "limitQualifier": "=", "pEC50": 7.26}
{"molecule": "c1ccc2[nH]c(Sc3ncnc4sc5c(c34)CCC5)nc2c1", "testedOn": "Plasmodium falciparum", "limitQualifier": "=", "pEC50": 6.04}
{"molecule": "N#Cc1c(N)nc2sc(C(=O)Nc3ccc(Br)cc3)c(N)c2c1-c1ccccc1", "testedOn": "Plasmodium falciparum", "limitQualifier": "=", "pEC50": 6.12}
{"molecule": "CC(C)(C)CC(=O)NCc1ccc(OC2CCN(CC(c3ccccc3)c3ccccc3)CC2)cc1", "testedOn": "Plasmodium falciparum", "limitQualifier": ">", "pEC50": 8.06}
{"molecule": "COc1ccccc1C(=O)NC1CCN(CC(O)CN(Cc2ccccc2)S(=O)(=O)c2ccccc2)C1 (stereo not given)", "testedOn": "Plasmodium falciparum", "limitQualifier": "=", "pEC50": 6.94}
{"molecule": "CCc1cc2c(NCCN3CCCCC3)ncnc2s1", "testedOn": "Plasmodium falciparum", "limitQualifier": "=", "pEC50": 6.33}
{"molecule": "CCCCCN(C(=O)c1cccc(OC)c1)C(CC)c1nc2ccccc2c(=O)n1-c1ccccc1OC (stereo not given)", "testedOn": "Plasmodium falciparum", "limitQualifier": "=", "pEC50": 6.50}
{"molecule": "COc1cc(C(=O)C=CNc2ccc(N(C)C)cc2)cc(OC)c1OC", "testedOn": "Plasmodium falciparum", "limitQualifier": "=", "pEC50": 6.04}
{"molecule": "Cc1ccc2[nH]c(/C(C#N)=C/c3cn(Cc4ccc(Cl)cc4Cl)nc3-c3ccccc3)nc2c1", "testedOn": "Plasmodium falciparum", "limitQualifier": "=", "pEC50": 5.73}
{"molecule": "O=C(Nc1ccncc1)Nc1cccc(NC(=O)Nc2ccncc2)c1", "testedOn": "Plasmodium falciparum", "limitQualifier": "=", "pEC50": 5.65}
{"molecule": "OCC1CCCCN1Cc1cc(-c2ccccc2)ccc1O (stereo not given)", "testedOn": "Plasmodium falciparum", "limitQualifier": ">", "pEC50": 7.63}
{"molecule": "COc1ccccc1NC(=O)Cn1cnc2sc(C(=O)Nc3ccc(F)cc3)c(C)c2c1=O", "testedOn": "Plasmodium falciparum", "limitQualifier": "<", "pEC50": 5.77}
